Entries annotated with measured TGI
tested on: A498 renal; experiment: NCI tumour cell line growth inhibition, 48 h
ENDPOINT: TGI (µM)

> print(dat)
                                    compound  target.entity  endpoint  sign  measured.number
 1  Cc1ccc(-c2nc3ccc(Cl)cc3c(=O)n2N2C(=O)CSC2c2ccccc2Cl)cc1 (stereo not given)     A498 renal       TGI     >              100
 2  COc1ccc(CCN2COc3c([C@@H](C)CCC=C(C)C)ccc(C)c3C2)cc1OC     A498 renal       TGI     =             11.9
 3          Cc1[nH]c2ccccc2c(=O)c1CC=C(Cl)Cl     A498 renal       TGI     =             86.8
 4                  O=C1CCC(O)=C1N=Nc1ccccc1     A498 renal       TGI     >              100
 5  CCOc1cc(C(C)(C)C)ccc1C1=N[C@@](C)(c2ccc(Cl)cc2)[C@@](C)(c2ccc(Cl)cc2)N1C(=O)N1CCN(CCCS(C)(=O)=O)CC1     A498 renal       TGI     =             9.46
 6                        CSc1sc2ccccc2[s+]1     A498 renal       TGI     >              100
 7  CCCCON(OC(=O)c1ccc2ccc3cccc4ccc1c2c34)C(C)=O     A498 renal       TGI     =             85.8
 8  N#CC1=C(N)N(c2ccccc2)C(c2ccccc2)C1(C#N)C#N (stereo not given)     A498 renal       TGI     =             33.6
 9  CC1=C(O)C(=O)C=C2C1=CC=C1[C@@]2(C)CC[C@@]2(C)[C@@H]3C[C@](C)(C(=O)O)CC[C@]3(C)CC[C@]12C     A498 renal       TGI     =            0.142
10  O=C1c2ccccc2C2(c3ccc(Cl)cc3)N[C@H]3CCCC[C@@H]3N12 (stereo not given in full)     A498 renal       TGI     >              100

Ref: PubChem BioAssay (NCI)
